target: UniProt P81908
readoutKind: pIC50
// scale note: pIC50 = -log10(conc_M); give the bare number

Study these solved cases before continuing.
C=C(C)C(=O)N(CCCCN=c1c2ccccc2nc2n1CCCCCC2)CCCN=c1c2ccccc2nc2n1CCCCCC2 yielded pIC50 of 7.42

The measured pIC50 associated with CC(=O)N(CCCCN=c1c2ccccc2nc2n1CCC2)CCCN=c1c2ccccc2nc2n1CCC2 reads 8.40

The recorded pIC50 for CC(C)(C)C(=O)N(CCCCN=c1c2ccccc2nc2n1CCCCCC2)CCCN=c1c2ccccc2nc2n1CCCCCC2 is 7.59

We now examine a further compound.
# pIC50 (compound: c1ccc2c(=NCCCCCCCCN=c3c4ccccc4nc4n3CCCCCC4)n3c(nc2c1)CCCCCC3 ) is 7.12

----------
molecular target: Cholinesterase (Equus caballus)
Sequence (P81908 whole entry): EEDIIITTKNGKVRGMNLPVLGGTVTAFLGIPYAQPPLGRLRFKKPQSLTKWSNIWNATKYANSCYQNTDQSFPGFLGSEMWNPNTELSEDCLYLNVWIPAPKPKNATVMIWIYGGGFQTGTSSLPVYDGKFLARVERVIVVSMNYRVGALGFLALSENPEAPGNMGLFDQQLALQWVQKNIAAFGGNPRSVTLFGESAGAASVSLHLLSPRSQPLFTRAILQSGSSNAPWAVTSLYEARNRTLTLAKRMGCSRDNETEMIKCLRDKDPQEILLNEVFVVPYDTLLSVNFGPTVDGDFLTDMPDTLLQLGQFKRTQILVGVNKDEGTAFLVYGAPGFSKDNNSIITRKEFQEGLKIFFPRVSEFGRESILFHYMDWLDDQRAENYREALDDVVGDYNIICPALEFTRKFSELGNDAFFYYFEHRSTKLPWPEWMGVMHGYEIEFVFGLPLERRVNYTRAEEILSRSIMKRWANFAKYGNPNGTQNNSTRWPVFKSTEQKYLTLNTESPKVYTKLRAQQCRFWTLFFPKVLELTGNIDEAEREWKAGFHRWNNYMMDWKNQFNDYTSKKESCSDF
pIC50: −log10 of the molar value.
Outcome label depends on pIC50 relative to 8: at/above gives TRUE, below gives FALSE.

Please review the following examples before continuing.
### Prompt Could you verify whether the entry c1ccc2c(=NCCCCCCCCN=c3c4ccccc4nc4n3CCC4)n3c(nc2c1)CCC3 shows pIC50 of no less than 8?
### Response TRUE

### Prompt Does the reported pIC50 for CC(=O)N(CCCN=c1c2ccccc2nc2n1CCC2)CCC/N=c1\c2ccccc2nc2n1CCC2 fall at or above the 8 mark?
### Response FALSE

### Prompt # bool: pIC50 of CC(=O)NCC(=O)N(CCCCN=c1c2ccccc2nc2n1CCCCCC2)CCCN=c1c2ccccc2nc2n1CCCCCC2 >= 8
### Response FALSE

More entries:
### Prompt Does CN(CCCN=c1c2ccccc2nc2n1CCCCCC2)CCC/N=c1\c2ccccc2nc2n1CCCCCC2 have a reported pIC50 of at least 8?
### Response FALSE

----------
These records show IC50 for Cholinesterase (Equus caballus).
Please state the figure in nM; there is no need to write the unit.

Take a look at these entries with their results.
# value of IC50, Cholinesterase (Equus caballus), item CC(=O)N(CCCN=c1c2ccccc2nc2n1CCCCCC2)CCC/N=c1\c2ccccc2nc2n1CCCCCC2 = 72.7

Field IC50 (Cholinesterase (Equus caballus)), entry c1ccc(C/N=c2/c3ccccc3nc3n2CCCCCC3)cc1 : 1100

CC(C)CCC(=O)N(CCCCN=c1c2ccccc2nc2n1CCCCCC2)CCCN=c1c2ccccc2nc2n1CCCCCC2 tested on Cholinesterase (Equus caballus) gave IC50: 3

The record that follows has no IC50 shown yet.
Lab note: molecule c1ccc2c(=NCCCCCCC/N=c3\c4ccccc4nc4n3CCCCCC4)n3c(nc2c1)CCCCCC3 tested on Cholinesterase (Equus caballus); recorded IC50 was 27

----------
As a worked illustration, we turn to log10 IC50 data collected for Cholinesterase (Equus caballus).
Note the log scale: values are log10 of IC50 expressed in µM.

In the examples that follow, each entry is paired with its recorded log10 IC50.
Short answer on Cholinesterase (Equus caballus) for CCC(=O)N(CCCCN=c1c2ccccc2nc2n1CCCCCC2)CCCN=c1c2ccccc2nc2n1CCCCCC2 , log10 IC50: -1.33

Value sought: log10 IC50, system Cholinesterase (Equus caballus), item CN(CCCN=c1c2ccccc2nc2n1CCC2)CCC/N=c1\c2ccccc2nc2n1CCC2 . Result: -0.26

***
Measured log10 IC50 (Cholinesterase (Equus caballus)), entry CN(CCCCN=c1c2ccccc2nc2n1CCCCCC2)CCCN=c1c2ccccc2nc2n1CCCCCC2 : -1.29

# lookup: CN(CCCCN=c1c2ccccc2nc2n1CCC2)CCCN=c1c2ccccc2nc2n1CCC2 on Cholinesterase (Equus caballus), log10 IC50 = -1.09

Here c1ccc2/c(=N\CCCCCCC/N=c3\c4ccccc4nc4n3CCC4)n3c(nc2c1)CCC3 was tested on Cholinesterase (Equus caballus), and its log10 IC50 came to -1.06
